system: RS4;11 leukaemia tumour line; experiment: In vitro cytotoxicity (Microculture Tetrazolium Assay, 48 hours); type: cell-based; conditions: cytotoxicity for RS4;11 cells, MTT
Where a name gives a salt, the structure may show the parent alone.
Would you mind telling me the reported IC50 of each entry?
Give the number; nM is assumed, so skip it.

For O=C(c1cc(-c2cc3c(cc2C(=O)N2Cc4ccccc4C[C@H]2CN2CCOCC2)OCO3)n2c1CCCC2)N(c1ccc(O)cc1)c1ccc(O)cc1 [Example 6, hydrochloride] , what is its reported IC50?
30

For Cl.Cn1ccc2cc(N(C(=O)c3cc(-c4cc(Cl)ccc4C(=O)N4Cc5ccccc5C[C@H]4CN4CCOCC4)n4ccccc34)c3ccc(O)cc3)ccc21 [Example 67, hydrochloride] , what is its reported IC50?
17.7

For `Cn1ccc2cc(N(C(=O)c3cc(-c4cc5c(cc4C(=O)N4Cc6ccccc6C[C@H]4CN4CCOCC4)OCO5)n4c3CN(C(=O)OC(C)(C)C)CC4)c3ccc(O)cc3)ccc21` , what is its reported IC50?
270

For Cn1ccc2cc(N(C(=O)c3cc(-c4cc5c(cc4C(=O)N4Cc6ccccc6C[C@H]4CN4CCOCC4)OCO5)n4c3CCC4)c3ccc(O)cc3)ccc21 [Example 96, hydrochloride] , what is its reported IC50?
58.8

For Cn1ccc2ccc(N(C(=O)c3cc(-c4cc(Cl)ccc4C(=O)N4Cc5ccccc5C[C@H]4CN4CCOCC4)n4c3CCCCC4)c3ccc(O)cc3)cc21 [Example 83, hydrochloride] , what is its reported IC50?
41.2

---

tested on: RS4;11 leukaemia tumour line; test: In vitro cytotoxicity (Microculture Tetrazolium Assay, 48 hours); format: cell-based; settings: Homo sapiens, cytotoxicity for RS4;11 cells, MTT
Where a name gives a salt, the structure may show the parent alone.
metric: IC50

For CCOc1ccc(C(=O)N2Cc3ccccc3C[C@H]2CN2CCOCC2)c(-c2cc(C(=O)N(c3ccc(O)cc3)c3ccc4c(ccn4C)c3)c3n2CCCC3)c1 [Example 36, hydrochloride] , what is its reported IC50?
135 nM

For O=C(c1cc(-c2cc3c(cc2C(=O)N2Cc4ccccc4C[C@H]2CN2CCOCC2)OCO3)n2ccccc12)N(c1ccccc1)c1ccc(O)cc1 [Example 58, hydrochloride] , what is its reported IC50?
40.1 nM

For O=C(c1cc(-c2cc3c(cc2C(=O)N2Cc4ccccc4C[C@H]2CN2CCOCC2)OCO3)n2c1CCCC2)N(c1ccc(O)cc1)c1ccc(Cl)cc1 [Example 3, hydrochloride] , what is its reported IC50?
44.7 nM

---

molecular target: Bcl-2 protein (Homo sapiens (Human)); assay: Inhibition of Bcl-2 by the fluorescence polarisation technique; format: binding; conditions: Bcl-2 inhibition, fluorescence polarisation test; read-out: IC50 (nM) Bcl-2 FP
Sequence (P10415 whole entry): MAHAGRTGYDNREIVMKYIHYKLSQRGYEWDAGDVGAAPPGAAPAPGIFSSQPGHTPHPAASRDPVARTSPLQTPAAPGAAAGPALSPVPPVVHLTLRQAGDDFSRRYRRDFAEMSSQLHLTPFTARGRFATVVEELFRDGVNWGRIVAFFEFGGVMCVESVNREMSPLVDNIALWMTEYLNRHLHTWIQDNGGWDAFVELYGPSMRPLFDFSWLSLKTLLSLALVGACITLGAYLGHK
Where a name gives a salt, the structure may show the parent alone.
Would you mind telling me the reported IC50 of each entry?
Give the number; nM is assumed, so skip it.

For CN1CCc2cc(N(C(=O)c3cc(-c4cc(Cl)ccc4C(=O)N4Cc5ccccc5C[C@H]4CN4CCOCC4)c4n3CCCC4)c3ccc(O)cc3)ccc21 [Example 43, hydrochloride] , what is its reported IC50?
110

For Cn1ccc2cc(N(C(=O)c3cc(-c4cc5c(cc4C(=O)N4Cc6ccccc6C[C@H]4CN4CCOCC4)OCO5)n4c3CN(C(=O)OC(C)(C)C)CC4)c3ccc(O)cc3)ccc21 [Example 72] , what is its reported IC50?
220

For O=C(c1cc(-c2cc3c(cc2C(=O)N2Cc4ccccc4C[C@H]2CN2CCOCC2)OCO3)n2c1CCCC2)N(c1ccc(O)cc1)c1ccc(Cl)cc1 [Example 3, hydrochloride] , what is its reported IC50?
20

For O=C(c1cc(-c2cc3c(cc2C(=O)N2Cc4ccccc4C[C@H]2CN2CCOCC2)OCO3)n2ccccc12)N(c1ccccc1)c1ccc(O)cc1 [Example 58, hydrochloride] , what is its reported IC50?
22
